# Target of assay: CAv1.2 (Homo sapiens, UniProt Q13936)
# Sequence (Q13936 whole entry): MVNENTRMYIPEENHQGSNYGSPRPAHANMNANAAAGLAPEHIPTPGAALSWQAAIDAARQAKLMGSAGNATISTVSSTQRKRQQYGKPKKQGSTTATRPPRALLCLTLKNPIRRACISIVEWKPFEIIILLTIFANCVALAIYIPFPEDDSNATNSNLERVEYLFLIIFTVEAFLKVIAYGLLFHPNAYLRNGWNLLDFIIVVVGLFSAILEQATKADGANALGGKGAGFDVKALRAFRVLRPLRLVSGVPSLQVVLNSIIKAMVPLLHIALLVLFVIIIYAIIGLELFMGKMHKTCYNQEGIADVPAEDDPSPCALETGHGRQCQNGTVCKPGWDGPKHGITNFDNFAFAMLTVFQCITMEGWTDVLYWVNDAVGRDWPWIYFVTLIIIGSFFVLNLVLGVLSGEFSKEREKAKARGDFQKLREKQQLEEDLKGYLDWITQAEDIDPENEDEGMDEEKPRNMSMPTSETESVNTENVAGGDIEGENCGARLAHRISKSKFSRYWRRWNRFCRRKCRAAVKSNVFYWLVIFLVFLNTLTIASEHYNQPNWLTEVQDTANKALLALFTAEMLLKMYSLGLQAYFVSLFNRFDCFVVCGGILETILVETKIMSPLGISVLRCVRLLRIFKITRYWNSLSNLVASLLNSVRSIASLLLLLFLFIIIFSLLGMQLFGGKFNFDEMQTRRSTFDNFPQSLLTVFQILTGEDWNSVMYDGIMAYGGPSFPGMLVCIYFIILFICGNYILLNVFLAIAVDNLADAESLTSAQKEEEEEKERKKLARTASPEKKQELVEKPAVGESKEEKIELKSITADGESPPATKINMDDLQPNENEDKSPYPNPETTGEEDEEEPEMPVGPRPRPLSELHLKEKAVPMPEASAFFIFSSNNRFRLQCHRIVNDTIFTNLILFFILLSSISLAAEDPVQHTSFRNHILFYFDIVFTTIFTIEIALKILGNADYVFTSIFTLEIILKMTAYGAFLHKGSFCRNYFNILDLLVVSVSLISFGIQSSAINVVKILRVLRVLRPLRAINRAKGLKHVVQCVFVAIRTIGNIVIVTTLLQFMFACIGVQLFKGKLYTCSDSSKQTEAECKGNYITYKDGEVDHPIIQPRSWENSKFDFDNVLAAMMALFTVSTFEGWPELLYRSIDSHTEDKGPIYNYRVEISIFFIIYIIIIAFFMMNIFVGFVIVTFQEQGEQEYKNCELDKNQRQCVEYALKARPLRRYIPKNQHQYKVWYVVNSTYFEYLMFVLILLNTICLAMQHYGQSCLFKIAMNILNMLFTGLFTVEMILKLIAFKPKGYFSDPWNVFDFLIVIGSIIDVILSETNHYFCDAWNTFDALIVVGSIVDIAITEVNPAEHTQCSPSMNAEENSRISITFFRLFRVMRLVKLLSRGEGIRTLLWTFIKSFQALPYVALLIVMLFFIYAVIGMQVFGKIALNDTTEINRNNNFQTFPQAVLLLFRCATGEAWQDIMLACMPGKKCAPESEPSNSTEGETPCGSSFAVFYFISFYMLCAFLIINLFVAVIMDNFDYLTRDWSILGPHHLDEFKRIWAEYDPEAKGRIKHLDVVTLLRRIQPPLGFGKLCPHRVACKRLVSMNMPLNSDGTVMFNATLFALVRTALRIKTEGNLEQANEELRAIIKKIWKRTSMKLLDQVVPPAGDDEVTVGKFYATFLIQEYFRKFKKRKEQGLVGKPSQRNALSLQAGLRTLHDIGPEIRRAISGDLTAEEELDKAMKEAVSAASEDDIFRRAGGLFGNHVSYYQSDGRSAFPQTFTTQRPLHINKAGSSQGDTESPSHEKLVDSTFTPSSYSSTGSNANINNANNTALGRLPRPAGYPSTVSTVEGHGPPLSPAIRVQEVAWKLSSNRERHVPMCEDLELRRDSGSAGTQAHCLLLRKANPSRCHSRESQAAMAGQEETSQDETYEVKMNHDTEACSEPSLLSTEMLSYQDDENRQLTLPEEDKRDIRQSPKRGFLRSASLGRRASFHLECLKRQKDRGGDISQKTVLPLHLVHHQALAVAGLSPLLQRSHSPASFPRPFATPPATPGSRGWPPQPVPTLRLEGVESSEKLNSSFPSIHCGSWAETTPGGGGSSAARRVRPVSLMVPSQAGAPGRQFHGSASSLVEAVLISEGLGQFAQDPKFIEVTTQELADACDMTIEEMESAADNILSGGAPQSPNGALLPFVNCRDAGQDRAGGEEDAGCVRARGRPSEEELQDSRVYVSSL
# Sequence (P54289 25-1103 partner): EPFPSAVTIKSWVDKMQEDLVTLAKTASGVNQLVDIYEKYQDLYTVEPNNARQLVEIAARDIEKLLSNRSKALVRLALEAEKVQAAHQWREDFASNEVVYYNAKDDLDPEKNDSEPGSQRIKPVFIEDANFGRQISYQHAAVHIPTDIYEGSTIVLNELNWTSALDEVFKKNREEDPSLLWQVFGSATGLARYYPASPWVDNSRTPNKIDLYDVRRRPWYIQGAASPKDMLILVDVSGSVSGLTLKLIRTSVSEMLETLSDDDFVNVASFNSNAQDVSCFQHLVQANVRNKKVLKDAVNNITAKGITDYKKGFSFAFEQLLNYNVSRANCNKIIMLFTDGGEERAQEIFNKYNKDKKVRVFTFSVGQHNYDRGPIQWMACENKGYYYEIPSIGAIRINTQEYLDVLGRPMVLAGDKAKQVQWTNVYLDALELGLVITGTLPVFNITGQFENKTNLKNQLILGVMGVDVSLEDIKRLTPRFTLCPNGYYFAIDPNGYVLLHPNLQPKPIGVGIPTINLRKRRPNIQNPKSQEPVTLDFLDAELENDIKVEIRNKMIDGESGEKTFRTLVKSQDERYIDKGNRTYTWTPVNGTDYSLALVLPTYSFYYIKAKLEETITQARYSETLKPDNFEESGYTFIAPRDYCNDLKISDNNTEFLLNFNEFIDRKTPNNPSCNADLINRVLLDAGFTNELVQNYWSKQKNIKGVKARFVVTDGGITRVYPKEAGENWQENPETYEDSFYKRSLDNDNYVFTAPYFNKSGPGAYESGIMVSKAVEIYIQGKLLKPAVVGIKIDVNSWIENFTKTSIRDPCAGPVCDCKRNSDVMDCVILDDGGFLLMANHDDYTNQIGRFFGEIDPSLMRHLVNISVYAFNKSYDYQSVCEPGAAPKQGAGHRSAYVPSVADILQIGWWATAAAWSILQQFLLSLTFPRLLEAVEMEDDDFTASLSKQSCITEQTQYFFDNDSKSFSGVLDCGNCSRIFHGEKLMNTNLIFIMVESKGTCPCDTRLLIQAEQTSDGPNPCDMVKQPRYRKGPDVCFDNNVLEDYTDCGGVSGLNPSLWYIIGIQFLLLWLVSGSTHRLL
# Sequence (Q08289 whole entry partner): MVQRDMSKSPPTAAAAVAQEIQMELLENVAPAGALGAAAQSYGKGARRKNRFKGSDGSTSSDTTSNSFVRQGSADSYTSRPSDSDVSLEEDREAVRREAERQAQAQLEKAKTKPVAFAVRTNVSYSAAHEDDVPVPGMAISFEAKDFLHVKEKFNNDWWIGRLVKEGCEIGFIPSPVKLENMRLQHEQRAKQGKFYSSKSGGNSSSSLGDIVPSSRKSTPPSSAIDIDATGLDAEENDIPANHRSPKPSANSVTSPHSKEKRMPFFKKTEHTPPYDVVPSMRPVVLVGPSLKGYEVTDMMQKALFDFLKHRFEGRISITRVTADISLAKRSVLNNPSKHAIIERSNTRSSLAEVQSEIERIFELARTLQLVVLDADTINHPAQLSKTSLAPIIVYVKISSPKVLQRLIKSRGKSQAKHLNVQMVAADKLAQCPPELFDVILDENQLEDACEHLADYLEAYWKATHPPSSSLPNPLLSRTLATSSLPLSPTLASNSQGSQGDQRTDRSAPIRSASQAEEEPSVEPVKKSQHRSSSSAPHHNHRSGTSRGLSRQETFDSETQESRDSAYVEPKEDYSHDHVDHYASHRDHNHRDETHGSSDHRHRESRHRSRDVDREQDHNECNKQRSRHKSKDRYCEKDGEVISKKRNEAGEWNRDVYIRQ
# Experiment: FLIPR data, CAv1.2 channel blocking (Table 6)
# Format: cell-based
# Experimental context: ratio closed/inactivated IC50
The label depends only on CAv1.2 IC50 Ratio closed/inact.: T if it is at least 2, F if it is smaller.

Example entries begin here.
# Compound, Target of assay, Group
records = [
    ("CC(C)([C@H]1C[C@H](NS(=O)(=O)c2ccc(Cl)c(F)c2)C1)S(=O)(=O)c1cccc(C(F)(F)F)c1 [Compound 665]", "CAv1.2 (Homo sapiens, UniProt Q13936)", "T"),
    ("CC(C)S(=O)(=O)c1cc(C(F)(F)F)cnc1C(=O)N[C@H]1C[C@@H](C(C)(C)S(=O)(=O)c2cccc(OC(F)(F)F)c2)C1 [Compound 645]", "CAv1.2 (Homo sapiens, UniProt Q13936)", "F"),
    ("CC(C)(C[C@H]1C[C@@H](NC(=O)c2cnc(C(F)(F)F)nc2)C1)S(=O)(=O)c1cccc(C(F)(F)F)c1 [Compound 734]", "CAv1.2 (Homo sapiens, UniProt Q13936)", "F"),
    ("CC(C)([C@H]1C[C@H](NS(=O)(=O)c2ccc(C(F)(F)F)cc2)C1)S(=O)(=O)c1cc(F)cc(C(F)(F)F)c1 [Compound 605]", "CAv1.2 (Homo sapiens, UniProt Q13936)", "T"),
    ("CC(C)([C@H]1C[C@@H](NS(=O)(=O)c2ccc(C(F)(F)F)nc2)C1)S(=O)(=O)c1cccc(C(F)(F)F)c1 [Compound 629]", "CAv1.2 (Homo sapiens, UniProt Q13936)", "T"),
]

Is the recorded value of CAv1.2 IC50 Ratio closed/inact. equal to or greater than 2 for this compound? CC(C)([C@H]1C[C@@H](Nc2ccnc(C(F)(F)F)n2)C1)S(=O)(=O)c1cc(F)cc(C(F)(F)F)c1 [Compound 648]
T

----------
# Target of assay: N-type calcium channel subunits (α1B, α2δ, and β3a) (Homo sapiens)
# Experiment: Block of Cav2.2 channel, whole cell voltage clamp, manual and PatchXpress
# Format: cell-based
# Experimental context: Table 5; table follows Assay Example 3 (whole cell voltage clamp / PatchXpress); assay not given
Mark each entry Fulfilled if its IC50 sits below 2000 nM, and Not fulfilled for all others.

Example entries begin here.
# Molecule, Group
rows = [
    ("CC1(CNC(=O)c2ccc(C(F)(F)F)cn2)CCC(S(=O)(=O)c2cccc(C(F)(F)F)c2)CC1 (centres unmarked) [Compound 208]", "Fulfilled"),
    ("O=C(Nc1ccc(C(F)(F)F)cn1)[C@H]1C[C@H](S(=O)(=O)c2cccc(C(F)(F)F)c2)C1 [Compound 415]", "Fulfilled"),
    ("O=C(N[C@H]1CC[C@@](F)(S(=O)(=O)c2cc(F)cc(C(F)(F)F)c2)CC1)c1cc(C(F)(F)F)ccn1 [Compound 328]", "Fulfilled"),
]

Say whether its IC50 is strictly beneath 2000 nM. Entry: O=C(N[C@H]1CC[C@@](F)(S(=O)(=O)c2cccc(C(F)(F)F)c2)CC1)C1CCC(F)(F)CC1 [Compound 305]
Fulfilled

Say whether its IC50 is strictly beneath 2000 nM. Entry: COc1ccc(C2(C(=O)N[C@H]3CC[C@@](F)(S(=O)(=O)c4cccc(C(F)(F)F)c4)CC3)CC2)cc1 [Compound 276]
Fulfilled

Say whether its IC50 is strictly beneath 2000 nM. Entry: CCN(CC)C(=O)CN[C@H]1CC[C@H](S(=O)(=O)c2cccc(C(F)(F)F)c2)CC1 [Compound 71]
Not fulfilled

Say whether its IC50 is strictly beneath 2000 nM. Entry: COc1cc(C(=O)NCC2(C)CCC(S(=O)(=O)c3cccc(C(F)(F)F)c3)CC2)cc(Cl)n1 (centres unmarked) [Compound 210]
Fulfilled

Say whether its IC50 is strictly beneath 2000 nM. Entry: COc1cc(F)cc(C(=O)NC[C@H]2C[C@H](S(=O)(=O)c3cccc(C(F)(F)F)c3)C2)c1 [Compound 375]
Fulfilled

Say whether its IC50 is strictly beneath 2000 nM. Entry: O=C(N[C@H]1CC[C@@](F)(S(=O)(=O)c2cc(F)cc(C(F)(F)F)c2)CC1)c1ccc(F)c(C(F)(F)F)c1 [Compound 325]
Fulfilled

Say whether its IC50 is strictly beneath 2000 nM. Entry: CC(C)(C)NC(=O)CN[C@H]1C[C@H](S(=O)(=O)c2cccc(C(F)(F)F)c2)C1 [Compound 215]
Not fulfilled

Say whether its IC50 is strictly beneath 2000 nM. Entry: O=S(=O)(NC[C@H]1C[C@H](S(=O)(=O)c2cccc(C(F)(F)F)c2)C1)c1ccc(C(F)(F)F)cc1 [Compound 424]
Fulfilled

Say whether its IC50 is strictly beneath 2000 nM. Entry: O=C(NC[C@H]1C[C@@H](S(=O)(=O)c2cccc(C(F)(F)F)c2)C1)c1ccnn1CC(F)(F)F [Compound 387]
Not fulfilled

Say whether its IC50 is strictly beneath 2000 nM. Entry: O=C(CN[C@H]1CC[C@H](S(=O)(=O)c2cccc(C(F)(F)F)c2)CC1)NC1CCCCC1 [Compound 76]
Fulfilled

----------
List of IC50 values.
# Target of assay: CAv1.2 (Homo sapiens)
# Experiment: FLIPR data, CAv1.2 channel blocking (Table 6)
# Assay type: cell-based
# Experimental context: closed state, read-out: CAv1.2 IC50 Closed

Example entries and their recorded answers appear below.
# Compound, IC50
measured = [
    ("CC(C)([C@H]1C[C@H](NC(=O)c2ccc(Cl)cn2)C1)S(=O)(=O)c1cccc(C(F)(F)F)c1", "≥ 10 µM"),
    ("CNC1(CC(=O)N[C@H]2C[C@H](C(C)(C)S(=O)(=O)c3cccc(OC(F)(F)F)c3)C2)CCCCC1", "≥ 10 µM"),
    ("CC(C)([C@H]1C[C@H](NS(=O)(=O)c2ccc(Cl)c(F)c2)C1)S(=O)(=O)c1cccc(C(F)(F)F)c1", "8.94 µM"),
    ("CC(C)([C@H]1C[C@H](NC(=O)c2cc(C(F)(F)F)n[nH]2)C1)S(=O)(=O)c1cccc(OC(F)(F)F)c1", "≥ 10 µM"),
    ("CC(C)([C@H]1C[C@@H](NS(=O)(=O)c2ccc(C(F)(F)F)cc2Cl)C1)S(=O)(=O)c1cc(F)cc(C(F)(F)F)c1", "9.01 µM"),
    ("CC(C)([C@H]1C[C@@H](NC(=O)c2ncc(C(F)(F)F)cc2S(C)(=O)=O)C1)S(=O)(=O)c1cc(F)cc(C(F)(F)F)c1", "≥ 10 µM"),
    ("CC(C)(C1CC(CNC(=O)c2ccnc(C(F)(F)F)n2)C1)S(=O)(=O)c1cccc(C(F)(F)F)c1 (centres unmarked)", "≥ 10 µM"),
    ("CC(C)(C[C@H]1C[C@@H](NC(=O)c2ccc(C(F)(F)F)cc2)C1)S(=O)(=O)c1cccc(C(F)(F)F)c1", "2.89 µM"),
    ("CC(C)([C@H]1C[C@@H](NS(=O)(=O)c2ccc(C(F)(F)F)cc2)C1)S(=O)(=O)c1cccc(C(F)(F)F)c1", "≥ 10 µM"),
    ("CC(C)(C1CC(CNC(=O)c2cnc(C(F)(F)F)nc2)C1)S(=O)(=O)c1cccc(C(F)(F)F)c1 (centres unmarked)", "≥ 10 µM"),
]

Look up IC50 for this compound: `CS(=O)(=O)c1cc(Cl)ccc1C(=O)NC[C@H]1C[C@H](S(=O)(=O)c2cccc(OC(F)(F)F)c2)C1`
≥ 10 µM

Look up IC50 for this compound: `CC(C)([C@H]1C[C@@H](NS(=O)(=O)c2ccc(F)c(C(F)(F)F)c2)C1)S(=O)(=O)c1cccc(C(F)(F)F)c1`
≥ 10 µM

Look up IC50 for this compound: `CC(C)S(=O)(=O)c1cc(C(F)(F)F)cnc1C(=O)N[C@H]1C[C@H](C(C)(C)S(=O)(=O)c2cccc(OC(F)(F)F)c2)C1`
≥ 10 µM

Look up IC50 for this compound: CC(C)(C1CC(CNC(=O)c2ccc(F)c(Cl)c2)C1)S(=O)(=O)c1cccc(C(F)(F)F)c1 (centres unmarked)
4.08 µM

----------
# Target of assay: human α1H T-type channels (Homo sapiens)
# Experiment: T-type calcium channel block, whole cell patch clamp, α1H
# Experimental context: HEK cells stably expressing human α1H; mainly non-inactivated protocol; values above 10,000 nM represented as 10000
List of pIC50 values.
Here pIC50 is given on a logarithmic scale as minus log10 of the concentration in mol/L.

# Molecule, Target of assay, Test result
data = [
    ("CC(C)(CNC(=O)c1nc2cc(F)ccc2[nH]1)S(=O)(=O)c1cccc(C(F)(F)F)c1", "human α1H T-type channels (Homo sapiens)", 5.27),
    ("COc1cc(F)cc(C(=O)N[C@H]2CC[C@H](CS(=O)(=O)c3cccc(C(F)(F)F)c3)CC2)c1", "human α1H T-type channels (Homo sapiens)", 5.75),
    ("CS(=O)(=O)c1cc(C(F)(F)F)ccc1C(=O)N[C@H]1CC[C@@](F)(S(=O)(=O)c2cccc(OC(F)(F)F)c2)CC1", "human α1H T-type channels (Homo sapiens)", 6.59),
    ("CC1(S(=O)(=O)c2cccc(C(F)(F)F)c2)CCC(NC(=O)CNC2CCCCC2)CC1 (stereo not shown)", "human α1H T-type channels (Homo sapiens)", 5.85),
    ("CS(=O)(=O)c1cc(Cl)ccc1C(=O)N[C@H]1CC[C@@](F)(S(=O)(=O)c2cccc(C(F)(F)F)c2)CC1", "human α1H T-type channels (Homo sapiens)", 5.83),
    ("CC1(NC(=O)c2ccc(C(F)(F)F)cn2)CCC(S(=O)(=O)c2cccc(C(F)(F)F)c2)CC1 (stereo not shown)", "human α1H T-type channels (Homo sapiens)", 5.71),
    ("O=C(N[C@H]1CC[C@@](F)(S(=O)(=O)c2cccc(OC(F)(F)F)c2)CC1)c1cncc(C(F)(F)F)c1", "human α1H T-type channels (Homo sapiens)", 6.17),
    ("O=C(N[C@H]1CC[C@@](F)(S(=O)(=O)c2cccc(C(F)(F)F)c2)CC1)c1cc2cnccc2nc1C(F)(F)F", "human α1H T-type channels (Homo sapiens)", 5.25),
    ("CC(C)(CCNC(=O)c1ccc(Oc2ccc(Cl)cc2)cc1)S(=O)(=O)c1cc(F)cc(C(F)(F)F)c1", "human α1H T-type channels (Homo sapiens)", 6.13),
    ("O=C(N[C@H]1CC[C@@H](S(=O)(=O)c2cc(F)cc(C(F)(F)F)c2)CC1)c1ccc(F)c(C(F)(F)F)c1", "human α1H T-type channels (Homo sapiens)", 5.46),
]

Look up pIC50 for this molecule: `COc1cc(F)cc(C(=O)N[C@H]2CC[C@@](F)(S(=O)(=O)c3cccc(C(F)(F)F)c3)CC2)c1`
5.68

Look up pIC50 for this molecule: `O=C(N[C@H]1CC[C@@](F)(S(=O)(=O)c2cccc(C(F)(F)F)c2)CC1)c1ccc(OCC(F)(F)F)nc1`
6.44

Look up pIC50 for this molecule: `CC1(NC(=O)CN[C@H]2CC[C@@](F)(S(=O)(=O)c3cccc(C(F)(F)F)c3)CC2)CCC1`
6.00

Look up pIC50 for this molecule: `Cc1cc(NC(=O)CN[C@H]2CC[C@@H](S(=O)(=O)c3cccc(C(F)(F)F)c3)CC2)on1`
5.14

Look up pIC50 for this molecule: `CC(C)(CCNCC(=O)NC1CCCCC1)S(=O)(=O)c1cccc(C(F)(F)F)c1`
5.46

Look up pIC50 for this molecule: `CC(C)(CNC(=O)c1nc2cc(C(F)(F)F)ccc2[nH]1)S(=O)(=O)c1cccc(C(F)(F)F)c1`
5.92

Look up pIC50 for this molecule: `CC1(C(=O)N[C@H]2CC[C@@](F)(S(=O)(=O)c3cccc(C(F)(F)F)c3)CC2)CC1`
5.38

Look up pIC50 for this molecule: `CC(C)(CNS(=O)(=O)c1cccc(C(F)(F)F)c1)S(=O)(=O)c1cccc(C(F)(F)F)c1`
5.69

Look up pIC50 for this molecule: COc1cc(F)cc(C(=O)NC2CCC(C)(S(=O)(=O)c3cccc(C(F)(F)F)c3)CC2)c1 (stereo not shown)
5.86

Look up pIC50 for this molecule: `O=C(Nc1cccc(C(F)(F)F)n1)[C@H]1C[C@@H](S(=O)(=O)c2cccc(C(F)(F)F)c2)C1`
5.81
